experimental system: T1, SYNJ2BP, P57105
T1 sequence (P57105 8-110, limits assumed, looked up): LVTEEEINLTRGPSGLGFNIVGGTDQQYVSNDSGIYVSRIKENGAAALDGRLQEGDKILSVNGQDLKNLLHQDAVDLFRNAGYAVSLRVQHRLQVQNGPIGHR
assay comment: holdup assay
Set-up: key: below the threshold = too weak to quantify, mostly under pKd 3.1 to 4
run parameters: plain residues with an end cap or a label only (N-terminal biotin on a linker: ahx)
Each item that follows carries a reported pKd.
measured metric: pKd

[
  {
    "binder": "HTHSYIETHV [CNKSR2, Q8WXI2]",
    "recorded number": 5.02
  },
  {
    "binder": "QDEKVKESYV [ABCA1, O95477]",
    "recorded number": 5.22
  }
]
